test-method-notes: self-splicing fitness, log relative to wild type (ln ratio); higher = more splicing; Tetrahymena group I intron in knt gene, E. coli kanamycin selection, DiMSum; sequences stand for … in CUCUCU…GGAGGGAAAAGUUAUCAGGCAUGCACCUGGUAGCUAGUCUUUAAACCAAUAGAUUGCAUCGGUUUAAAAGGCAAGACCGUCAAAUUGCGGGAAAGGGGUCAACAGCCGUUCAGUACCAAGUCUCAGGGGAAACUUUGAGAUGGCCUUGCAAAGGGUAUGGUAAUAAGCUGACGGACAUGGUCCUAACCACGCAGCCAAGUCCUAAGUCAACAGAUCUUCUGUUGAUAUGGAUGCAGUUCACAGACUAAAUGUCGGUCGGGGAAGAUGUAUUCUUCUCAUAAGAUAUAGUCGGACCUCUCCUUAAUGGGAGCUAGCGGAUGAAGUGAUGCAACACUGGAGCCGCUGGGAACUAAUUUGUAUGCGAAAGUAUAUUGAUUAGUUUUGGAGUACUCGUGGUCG;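 also: selection with 25 µg/mL kanamycin versus none on LB agar overnight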
assay-conditions: 37 °C
Reported self-splicing fitness (ln) values for the following sequences.
endpoint-label: self-splicing fitness (ln)

sequence-content	value-reported
CUGGAGCAAUAUUACGCGUG	0.32
GUGUAGCAAUAUUACGGGAC	-2.03
GAUAAGCAAUAUUACGAAGC	-0.18
CGUCAGCAAUAUUACGCCGG	-1.27
AUGGAGCAAUAUUACGACAC	-1.08
UCCAAGCAAUAUUACGGGAU	-2.52
UGGAAGCAAUAUUACGGACU	0.284
GUCCAGCAAUAUUACGCGGC	-2.6
CCAUAGCAAUAUUACGGCAA	-2.9
UUGCAGCAAUAUUACGUCAU	-1.13
UCCCAGCAAUAUUACGCCCA	-0.396
CAGCAGCAAUAUUACGGCGU	-0.859
UCAUAGCAAUAUUACGCUAG	-1.34
AGCCAGCAAUAUUACGGAGG	-1.8
CCGGAGCAAUAUUACGAGAU	-3.52
UCGUAGCAAUAUUACGUGUC	-2.38
CGCCAGCAAUAUUACGUAGA	-1.18
AUUAAGCAAUAUUACGUCUC	-1.4
ACUGAGCAAUAUUACGGGGC	-1.57
CCCAAGCAAUAUUACGAAAA	-2.1
CAAAAGCAAUAUUACGCCAU	-2.61
GGGCAGCAAUAUUACGCAGU	-0.784
GAGAAGCAAUAUUACGCGGG	-1.88
GUGGAGCAAUAUUACGAAUA	-2.33
CGCAAGCAAUAUUACGUGCC	-1.13
CGCAAGCAAUAUUACGAGUU	-1.45
AUUCAGCAAUAUUACGGAAA	-0.365
UCUCAGCAAUAUUACGCGUC	-2.81
ACCCAGCAAUAUUACGGUAG	-2.97
CCACAGCAAUAUUACGGGGC	-2.43
GUUCAGCAAUAUUACGCGGA	-2.54
AGGAAGCAAUAUUACGGAGC	-1.61
GUGAAGCAAUAUUACGACUG	-0.924
AUGCAGCAAUAUUACGGUCA	-1.08
CUUGAGCAAUAUUACGUGGC	-2.41
GAGGAGCAAUAUUACGAACA	-2.07
UGACAGCAAUAUUACGUCAU	-2.48
UUGGAGCAAUAUUACGUAGU	-2.6
GAGUAGCAAUAUUACGCCUA	-0.374
CCCCAGCAAUAUUACGUCAA	-3
GUAUAGCAAUAUUACGCUGA	-1.81
CAUUAGCAAUAUUACGAUUG	-0.759
AUGCAGCAAUAUUACGCUUU	-1.75
CCCGAGCAAUAUUACGUCGU	-3.06
CGAAAGCAAUAUUACGGGAG	-2.56
AGUCAGCAAUAUUACGCUAA	-0.99
CUAAAGCAAUAUUACGAACU	-2.04
AAGCAGCAAUAUUACGUAAU	-0.923
AAACAGCAAUAUUACGUAAC	-1.97
CCAGAGCAAUAUUACGAAAG	-1.47
ACGAAGCAAUAUUACGACAU	-0.109
AGACAGCAAUAUUACGCGUU	-2.11
CCUAAGCAAUAUUACGGGGC	-2.61
GCGAAGCAAUAUUACGUACA	-1.29
AUAAAGCAAUAUUACGAAGC	-0.791
ACCUAGCAAUAUUACGCAUC	-0.436
CACAAGCAAUAUUACGAUUC	-0.651
